Tested on: CP265
test: qHTS profiling for inhibitors of Plasmodium falciparum proliferation (AID 504749); note: nearly all actives have a fitted effect of over 60% in size
condition.notes: P. falciparum in erythrocytes, SYBR Green DNA, 72 h; series mostly up to 28.7 µM
Records with an inconclusive call do not appear. The source made the active and inactive calls. Calls come from the whole dose curve; as a rule, active = well fitted inhibition curve with a large enough effect; inconclusive = small, poorly fitted or top-dose-only effect; inactive = flat fitted curve, though single readings scatter.
Outcomes: 1 = active, 0 = inactive

{"molecule": "C=C1N[C@]2(C(=O)COC(C)=O)[C@@H](C[C@H]3[C@@H]4CCC5=CC(=O)C=C[C@]5(C)[C@H]4[C@@H](O)C[C@@]32C)O1", "category.label": 0}
{"molecule": "CC(=O)CC(c1ccccc1)C1C(=O)Oc2ccccc2C1=O (stereo not drawn)", "category.label": 0}
{"molecule": "CCCC(=O)Nc1c(I)cc(I)c(C[C@H](CC)C(=O)O)c1I", "category.label": 0}
{"molecule": "OC[C@@H]1O[C@](CO)(O[C@H]2O[C@H](CO)[C@@H](O)[C@H](O)[C@H]2O)[C@H](O)[C@H]1O", "category.label": 0}
{"molecule": "CC1(C)OC[C@@H]2O[C@@]3(C(=O)O)OC(C)(C)O[C@@H]3[C@@H]2O1", "category.label": 0}
{"molecule": "C=CCN1CC(C(=O)N(CCCN(C)C)C(=O)NCC)CC2c3cccc4[nH]cc(c34)CC21 (stereo not drawn)", "category.label": 0}
{"molecule": "COc1cc2c(cc1O)CCN[C@@]21CS[C@H]2c3c(OC(C)=O)c(C)c4c(c3C(COC1=O)N1C2C2c3c(cc(C)c(OC)c3O)CC([C@@H]1O)N2C)OCO4 (stereo partly drawn)", "category.label": 1}
{"molecule": "CO[C@H]1OC2O[C@@]3(C)CC[C@H]4[C@H](C)CC[C@@H]([C@H]1C)[C@@]24OO3 (stereo partly drawn)", "category.label": 1}
{"molecule": "CCC(C(=O)C(C)C(O)C(C)CCc1ccc(C)c(O)c1C(=O)O)C1OC(CC)(C2CC[C@@](O)(CC)C(C)O2)CC1C (stereo partly drawn)", "category.label": 1}
{"molecule": "Cc1cnc(C(=O)O)cn1", "category.label": 0}
{"molecule": "O=C(O)CC(O)CC(O)/C=C/c1c(C2CC2)nc2ccccc2c1-c1ccc(F)cc1 (stereo not drawn)", "category.label": 0}
{"molecule": "CN(C)CC/C=C1\\c2ccccc2COc2ccc(CC(=O)O)cc21", "category.label": 0}
{"molecule": "CCCCCCCCCCCCCCCC(=O)OCC(COP(=O)(O)OCC[N+](C)(C)C)OC(=O)CCCCCCCCCCCCCCC (stereo not drawn)", "category.label": 0}
{"molecule": "CNC1C(O)C(OC2C(N)CC(N)C(OC3OC(CN)=CCC3N)C2O)OCC1(C)O (stereo not drawn)", "category.label": 0}
{"molecule": "CCCCC(=O)OCC(=O)[C@]1(O)Cc2c(O)c3c(c(O)c2[C@H](OC2CC(NC(=O)C(F)(F)F)C(O)C(C)O2)C1)C(=O)c1c(OC)cccc1C3=O (stereo partly drawn)", "category.label": 1}
{"molecule": "COc1cccc(OC)c1C(=O)NC1C(=O)N2C1SC(C)(C)C2C(=O)O (stereo not drawn)", "category.label": 0}
{"molecule": "CCCC[C@H]1C(=O)N(c2ccccc2)N(c2ccc(O)cc2)C1=O", "category.label": 0}
{"molecule": "CC(=O)NC1[C@H]([C@H](O)[C@H](O)CO)OC(C(=O)O)=C[C@H]1N=C(N)N (stereo partly drawn)", "category.label": 0}

Source: PubChem BioAssay (NCATS)
